Below, each entry is listed alongside its reported half-life.
# PROCEDURE_DETAILS: Evaluation of pharmacokinetics in mice
# Assay type: in vivo
# TEST_SETTINGS: mouse, po; ICR mice, ig, 10 mg/kg, plasma

Study these solved cases before continuing.
Cn1ccc(-c2cc(C(=O)Nc3ccc(OC(F)(F)Cl)cc3)cnc2N2CC[C@@H](F)C2)cc1=O [Compound 16] = 1.46 h
Cn1ccc(-c2cc(C(=O)Nc3ccc(OC(F)(F)Cl)cc3)cnc2N2CCCC2)cc1=O [Compound 15] = 2.12 h
CN(C)c1ncc(C(=O)Nc2ccc(OC(F)(F)Cl)cc2)cc1-c1cc(=O)n(C)cn1 [Compound 61] = 10.4 h

Ask | Identify half-life associated with the compound Cn1ccc(-c2cc(C(=O)Nc3ccc(OC(F)(F)Cl)cc3)cnc2N2CCOCC2)cc1=O [Compound 7]
Reply | 1.05 h

====

Below, each entry is listed alongside its reported Cmax.
# PROCEDURE_DETAILS: Evaluation of pharmacokinetics in mice
# Assay type: in vivo
# TEST_SETTINGS: mouse, po; ICR mice, ig, 10 mg/kg, plasma
Number only, in ng/mL; omit the unit.

Study these solved cases before continuing.
Cn1ccc(-c2cc(C(=O)Nc3ccc(OC(F)(F)Cl)cc3)cnc2N2CCOCC2)cc1=O = 772
CN(C)c1ncc(C(=O)Nc2ccc(OC(F)(F)Cl)cc2)cc1-c1cc(=O)n(C)cn1 = 3200
Cn1ccc(-c2cc(C(=O)Nc3ccc(OC(F)(F)Cl)cc3)cnc2N2CCCC2)cc1=O = 2330

Ask | Identify Cmax associated with the molecule Cn1ccc(-c2cc(C(=O)Nc3ccc(OC(F)(F)Cl)cc3)cnc2N2CC[C@@H](F)C2)cc1=O
Reply | 1880

====

# TEST_TARGET: Ba/F3-BCR-ABL1-T315I-C3 cells (Homo sapiens, UniProt P00519, T315I, cells depend on it)
# Construct: fused on or other part: P11274 (Breakpoint cluster region protein)
# PROCEDURE_DETAILS: Inhibitory effect of compounds on proliferation of BCR-ABL T315I-transfected Ba/F3 cells (CCK-8)
# Assay type: cell-based
# TEST_SETTINGS: 72 h with compound, CCK-8, 5% serum, read-out: IC50 (nM) Ba/F3-BCR-ABL1 T315I
Hi! Just check whether GI50 is below 20 nM. Below gives 1, equal or above gives 0.

Worked examples follow.
O=C(Nc1ccc(OC(F)(F)Cl)cc1)c1cnc(N2CCOCC2)c(-c2ccn(CCO)c(=O)c2)c1 = 0
CO[C@@H]1CCN(c2ncc(C(=O)Nc3ccc(OC(F)(F)Cl)cc3)cc2-c2cnn3c2COCC3)C1 = 1
Cn1ccc(-c2cc(C(=O)Nc3ccc(OC(F)(F)Cl)cc3)cnc2N2CC[C@H](Cl)C2)cc1=O = 0
Cn1cc(Cl)c(-c2cc(C(=O)Nc3ccc(OC(F)(F)Cl)cc3)cnc2N2CCOCC2)cc1=O = 1
O=C(Nc1ccc(OC(F)(F)Cl)cc1)c1cnc(N2CCCC2)c(-c2cnn3c2COCC3)c1 = 1

// next entry
Ask | Please determine if Cn1ccc(-c2cc(C(=O)Nc3ccc(OC(F)(F)Cl)cc3)cnc2N2CC3CC3C2)cc1=O (stereo not shown) is below 20 nM in terms of GI50.
Reply | 1

====

# PROCEDURE_DETAILS: Evaluation of pharmacokinetics in mice
# Assay type: in vivo
# TEST_SETTINGS: mouse, po; ICR mice, ig, 10 mg/kg, plasma; read-out: AUC(0-24)
ENDPOINT: AUC(0-t) (ng·h/mL)
Number only, in ng·h/mL; omit the unit.

Study these solved cases before continuing.
Cn1ccc(-c2cc(C(=O)Nc3ccc(OC(F)(F)Cl)cc3)cnc2N2CC[C@@H](F)C2)cc1=O = 9690
Cn1ccc(-c2cc(C(=O)Nc3ccc(OC(F)(F)Cl)cc3)cnc2N2CCOCC2)cc1=O = 2850
CN(C)c1ncc(C(=O)Nc2ccc(OC(F)(F)Cl)cc2)cc1-c1cc(=O)n(C)cn1 = 24100

Ask | Identify AUC(0-t) associated with the compound Cn1ccc(-c2cc(C(=O)Nc3ccc(OC(F)(F)Cl)cc3)cnc2N2CCCC2)cc1=O
Reply | 12300

====

# PROCEDURE_DETAILS: Evaluation of pharmacokinetics in mice
# Format: in vivo
# TEST_SETTINGS: mouse, plasma, po; ICR mice, ig 10 mg/kg; (intragastric AUC×intravenous dosage)/(intravenous AUC×intragastric dosage)×100%; read-out: Fabs(%) absolute bioavailability
Below, each entry is listed alongside its reported bioavailability.
State the value with its unit after it.

Cn1ccc(-c2cc(C(=O)Nc3ccc(OC(F)(F)Cl)cc3)cnc2N2CCOCC2)cc1=O [Compound 7] = 74.1%
Cn1ccc(-c2cc(C(=O)Nc3ccc(OC(F)(F)Cl)cc3)cnc2N2CCCC2)cc1=O [Compound 15] = 106%
Cn1ccc(-c2cc(C(=O)Nc3ccc(OC(F)(F)Cl)cc3)cnc2N2CC[C@@H](F)C2)cc1=O [Compound 16] = 93.2%

Would you kindly look at the next entry?
Ask | Identify bioavailability associated with the compound CN(C)c1ncc(C(=O)Nc2ccc(OC(F)(F)Cl)cc2)cc1-c1cc(=O)n(C)cn1 [Compound 61]
Reply | 95.1%

====

# TEST_TARGET: Ba/F3-BCR-ABL1-T315I-C3 cells (Homo sapiens, UniProt P00519, T315I, cells depend on it)
# Construct: fused on or other part: P11274 (Breakpoint cluster region protein)
# PROCEDURE_DETAILS: Inhibitory effect of compounds on proliferation of BCR-ABL T315I-transfected Ba/F3 cells (CCK-8)
# Type: cell-based
# TEST_SETTINGS: 72 h with compound, CCK-8, 5% serum, read-out: IC50 (nM) Ba/F3-BCR-ABL1 T315I
Below, each entry is listed alongside its reported GI50.
State the value with its unit after it.

Study these solved cases before continuing.
Cn1cnc(-c2cc(C(=O)Nc3ccc(OC(F)(F)Cl)cc3)cnc2N2CC[C@@H](F)C2)cc1=O [Compound 53] = 2.7 nM
O=C(Nc1ccc(OC(F)(F)Cl)cc1)c1cnc(N2CC[C@@H](O)C2)c(-c2cc3c([nH]2)C(=O)NCC3)c1 [Compound 99] = 1.4 nM
Cn1cnc(-c2cc(C(=O)Nc3ccc(OC(F)(F)Cl)cc3)cnc2N2CC[C@@H](O)C2)cc1=O [Compound 46] = 26 nM
Cn1cnc(-c2cc(C(=O)Nc3ccc(OC(F)(F)Cl)cc3)cnc2N2CCOCC2)cc1=O [Compound 54] = 6.4 nM
Cn1ccc(-c2cc(C(=O)Nc3ccc(OC(F)(F)Cl)cc3)cnc2N2CC[C@H](C#N)C2)cc1=O [Compound 30] = 18 nM

Ask | Identify GI50 associated with the compound Cn1ccc(-c2cc(C(=O)Nc3ccc(OC(F)(F)Cl)cc3)cnc2N2C[C@H]3C[C@@H]2CO3)cc1=O [Compound 21]
Reply | 20 nM

Ask | Identify GI50 associated with the compound O=C(Nc1ccc(OC(F)(F)Cl)cc1)c1cnc(N2C[C@@H]3C[C@H]2CO3)c(-c2cnn3c2COCC3)c1 [Compound 40]
Reply | 7.4 nM

Ask | Identify GI50 associated with the compound Cn1cnc(-c2cc(C(=O)Nc3ccc(OC(F)(F)Cl)cc3)cnc2N2CC(F)(F)C2)cc1=O [Compound 72]
Reply | 6.3 nM

Ask | Identify GI50 associated with the compound CO[C@@H]1CCN(c2ncc(C(=O)Nc3ccc(OC(F)(F)Cl)cc3)cc2-c2cc(=O)n(C)cn2)C1 [Compound 63]
Reply | 6 nM

Ask | Identify GI50 associated with the compound Cn1ccc(-c2cc(C(=O)Nc3ccc(OC(F)(F)Cl)cc3)cnc2N2CC[C@@H](C#N)C2)cc1=O [Compound 31]
Reply | 21 nM

Ask | Identify GI50 associated with the compound O=C(Nc1ccc(OC(F)(F)Cl)cc1)c1ccc(N2CC[C@@H](O)C2)c(-c2cc3c([nH]2)C(=O)NC3)c1 [Compound 116]
Reply | 0.12 nM
